System: MDA-MB-231 TNBC cells
Assay: cell viability assay
Type: cell-based
Details: MDA-MB-231, 24 h; read-out: IC50 cell growth
Measured Endpoint: IC50 (nM)
Number in nM, nothing else.

QUERY: For the compound CC1=C(CO)C(=O)O[C@@H]([C@@H](C)[C@H]2CC[C@H]3[C@@H]4C[C@H]5O[C@]56[C@@H](OC(=O)c5ccccn5)C=CC(=O)[C@]6(C)[C@H]4CC[C@]23C)C1 [ASR490] , give its reported IC50.
RESULT: 760

====

Tested on: ALDH+ (BCSC) cells
Settings: read-out: IC 50 cell growth, 48 h
Measured Endpoint: IC50 (µM)
Number in µM, nothing else.

QUERY: For the compound `CC1=C(CO)C(=O)O[C@@H]([C@@H](C)[C@H]2CC[C@H]3[C@@H]4C[C@H]5O[C@]56[C@@H](OC(=O)c5ccccn5)C=CC(=O)[C@]6(C)[C@H]4CC[C@]23C)C1` , give its reported IC50.
RESULT: 0.443

====

System: TCCSUP cells
Experiment: MTT cell viability assay
Assay type: cell-based
Settings: 48 h
Measured Endpoint: pIC50
Give only the number. pIC50 is defined as minus log10 of concentration in molar units.

QUERY: Report pIC50 from TCCSUP cells testing of CC1=C(CO)C(=O)O[C@@H]([C@@H](C)[C@H]2CC[C@H]3[C@@H]4C[C@H]5O[C@]56[C@@H](OC(=O)c5cccs5)C=CC(=O)[C@]6(C)[C@H]4CC[C@]23C)C1 [ASR488]
RESULT: 6.32

====

System: SW-620 cells
Conditions: read-out: IC50 cell viability; SW-620, 24-h
Measured Endpoint: pIC50
Give only the number. pIC50 is defined as minus log10 of concentration in molar units.

QUERY: Report pIC50 from SW-620 cells testing of `CC1=C(CO)C(=O)O[C@@H]([C@@H](C)[C@H]2CC[C@H]3[C@@H]4C[C@H]5O[C@]56[C@@H](OC(=O)c5ccccn5)C=CC(=O)[C@]6(C)[C@H]4CC[C@]23C)C1`
RESULT: 5.92

====

Tested on: HT1376 cells
Assay: MTT cell viability assay
Assay type: cell-based
Conditions: HT1376, 72 h
Description: Cell culture and viability assay. […] Cell lines were maintained in Eagle's Minimum Essential Medium at 37° C. and 5% CO2. […] TCCSUP and HT1376 cells were treated with varying concentrations of ASR488 (0.2-12.5 μM) for 24, 48, and 72 h.
Measured Endpoint: IC50 (nM)
Number in nM, nothing else.

QUERY: For the compound `CC1=C(CO)C(=O)O[C@@H]([C@@H](C)[C@H]2CC[C@H]3[C@@H]4C[C@H]5O[C@]56[C@@H](OC(=O)c5cccs5)C=CC(=O)[C@]6(C)[C@H]4CC[C@]23C)C1` , give its reported IC50.
RESULT: 850

====

System: TCCSUP cells
Test: MTT cell viability assay
Format: cell-based
Conditions: 24 h
Measured Endpoint: IC50 (nM)
Number in nM, nothing else.

QUERY: Report IC50 from TCCSUP cells testing of CC1=C(CO)C(=O)O[C@@H]([C@@H](C)[C@H]2CC[C@H]3[C@@H]4C[C@H]5O[C@]56[C@@H](OC(=O)c5cccs5)C=CC(=O)[C@]6(C)[C@H]4CC[C@]23C)C1 [ASR488]
RESULT: 800

// data source = patent US20230103142A1
